- assay_target: T1, human BCMA with a His tag (ACROBiosystems, Catalog No.: BCA-H522y) (human)
- T1 construct: Bought His-tagged recombinant protein; also called huBCMA-His; Recombinant human BCMA
- T1 chain: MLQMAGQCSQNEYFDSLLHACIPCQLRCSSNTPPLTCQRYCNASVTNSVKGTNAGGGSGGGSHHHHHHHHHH
- method_notes: ELISA, plate-coated human BCMA-His

>  <binder>
SCT-Aa02(h/h) (antibody, V domains shown, Full IgG format, chimeric: human IgG1 heavy chain constant region, human kappa light chain constant region) VH: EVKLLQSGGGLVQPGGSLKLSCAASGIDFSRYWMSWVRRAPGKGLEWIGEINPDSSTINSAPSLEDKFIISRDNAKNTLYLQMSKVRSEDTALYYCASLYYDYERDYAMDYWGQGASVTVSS VL: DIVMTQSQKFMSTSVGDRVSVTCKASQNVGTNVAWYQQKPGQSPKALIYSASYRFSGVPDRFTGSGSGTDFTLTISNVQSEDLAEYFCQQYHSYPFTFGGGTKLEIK

>  <EC50 / ng/mL>
2.85

$$$$
>  <binder>
SCT-Aa08(m/m) (antibody, V domains shown, Full IgG format: mouse IgG1 heavy chain constant region, mouse kappa light chain constant region) VH: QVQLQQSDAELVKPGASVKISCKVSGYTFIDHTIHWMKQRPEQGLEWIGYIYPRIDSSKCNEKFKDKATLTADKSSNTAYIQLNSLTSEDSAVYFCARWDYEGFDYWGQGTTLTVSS VL: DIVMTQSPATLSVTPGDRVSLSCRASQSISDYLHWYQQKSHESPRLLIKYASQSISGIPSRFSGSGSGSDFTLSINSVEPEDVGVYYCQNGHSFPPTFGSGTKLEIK

>  <EC50 / ng/mL>
2.46

$$$$
